Attribution: PubChem BioAssay AID1919015

- Test system: OVCAR-5 complex spheroids with HUVEC/MSC, viability, % test/control
- measurementProtocol: Anticancer human tumor OVCAR-5 cell line growth inhibition [AhR];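 note: spheroids exposed to compounds for 7 days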;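 for viability, T/C: 100% = DMSO vehicle control wells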
- experimentalConditions: second compound 10 µM; first compound 0.03 µM; stronger effect = lower value
- Description: Multicellular complex tumor spheroid response to aryl hydrocarbon receptor antagonists in combination with a variety of drugs and investigational agents in selected tumor cell lines […] Compounds. […] If the clinical Cmax for an agent had not been determined, the highest concentration tested was 10 microM (Table 1). […]
Kindly apply the following: satisfied if viability, T/C is less than 30%, not satisfied in every other case.

Task: is_below(viability, T/C, 30%) for CCN(c1cc(-c2ccc(CN3CCOCC3)cc2)cc(C(=O)NCc2c(C)cc(C)[nH]c2=O)c1C)C1CCOCC1 + Cc1cncc(-c2nc(NCCc3c[nH]c4ccccc34)c3ncn(C(C)C)c3n2)c1 ?
Output: satisfied

Task: Next up: CCc1c2c(nc3ccc(O)cc13)-c1cc3c(c(=O)n1C2)COC(=O)[C@]3(O)CC + CC(CO)NC(=O)c1cc(-c2ccc(Cl)cc2)nn(-c2cnn(C)c2)c1=O
Output: not satisfied

Task: Same question, CC(C)CC(NC(=O)C(Cc1ccccc1)NC(=O)c1cnccn1)B(O)O (stereo unspecified) + Cc1ccccc1N=Nc1ccc(NC(=O)c2ccnn2C)c(C)c1 this time
Output: not satisfied

Task: Now consider CC(C)CC(NC(=O)C(Cc1ccccc1)NC(=O)c1cnccn1)B(O)O (stereo unspecified) + Cc1cncc(-c2nc(NCCc3c[nH]c4ccccc34)c3ncn(C(C)C)c3n2)c1 and answer again.
Output: satisfied

Task: Please do the same for Nc1ncn(C2CC(O)C(CO)S2)c(=O)n1 (stereo unspecified) + CC(CO)NC(=O)c1cc(-c2ccc(Cl)cc2)nn(-c2cnn(C)c2)c1=O as well.
Output: not satisfied

Please find the next compound below.
Task: Consider CCN(c1cc(-c2ccc(CN3CCOCC3)cc2)cc(C(=O)NCc2c(C)cc(C)[nH]c2=O)c1C)C1CCOCC1 + CC(CO)NC(=O)c1cc(-c2ccc(Cl)cc2)nn(-c2cnn(C)c2)c1=O . Does its viability, T/C lie strictly below 30%?
Output: not satisfied

====

- System: OVCAR-5 complex spheroids with HUVEC/MSC, viability, % test/control
- measurementProtocol: Anticancer human tumor OVCAR-5 cell line growth inhibition [AhR];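 note: spheroids exposed to compounds for 7 days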
- experimentalConditions: curve of first compound; second compound 3.16 µM
pIC50: −log10 of the molar value.
Decide by pIC50: equal to or exceeding 6 means rule met, less means rule not met.

Example cases with answers are listed next.
Task: API: above_or_equal(metric=pIC50, cutoff=6) for item COc1cc(Nc2ncc3c(n2)-c2ccc(Cl)cc2C(c2c(F)cccc2OC)=NC3)ccc1C(=O)O + CC(CO)NC(=O)c1cc(-c2ccc(Cl)cc2)nn(-c2cnn(C)c2)c1=O
Output: rule not met

Task: Next record, please: O=C(c1cc(Cc2n[nH]c(=O)c3ccccc23)ccc1F)N1CCN(C(=O)C2CC2)CC1 + Cc1cncc(-c2nc(NCCc3c[nH]c4ccccc34)c3ncn(C(C)C)c3n2)c1
Output: rule not met

Task: For O=C(c1cc(Cc2n[nH]c(=O)c3ccccc23)ccc1F)N1CCN(C(=O)C2CC2)CC1 + CC(CO)NC(=O)c1cc(-c2ccc(Cl)cc2)nn(-c2cnn(C)c2)c1=O then?
Output: rule not met

Task: Now consider NS(=O)(=O)OCC1CC(n2ccc3c(NC4CCc5ccccc54)ncnc32)CC1O (configuration not stated) + Cc1cncc(-c2nc(NCCc3c[nH]c4ccccc34)c3ncn(C(C)C)c3n2)c1 and answer again.
Output: rule met

New cases:
Task: Decide: is the reported value of pIC50 for COc1cccc2c1C(=O)c1c(O)c3c(c(O)c1C2=O)CC(O)(C(=O)CO)CC3OC1CC(N)C(O)C(C)O1 (configuration not stated) + CC(CO)NC(=O)c1cc(-c2ccc(Cl)cc2)nn(-c2cnn(C)c2)c1=O equal to or greater than 6?
Output: rule met

====

- Tested on: OVCAR-5 complex spheroids with HUVEC/MSC, viability, % test/control
- measurementProtocol: Anticancer human tumor OVCAR-5 cell line growth inhibition [AhR];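 note: spheroids exposed to compounds for 7 days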
- experimentalConditions: curve of first compound; second compound 3.16 µM
quantityName: pIC50
Worth noting: pIC50 values are minus log10 of concentrations stated in mol/L.

Task: What value of measured pIC50 is listed for O=C(C=Cn1cnc(-c2cc(C(F)(F)F)cc(C(F)(F)F)c2)n1)NNc1cnccn1 + Cc1cncc(-c2nc(NCCc3c[nH]c4ccccc34)c3ncn(C(C)C)c3n2)c1 ?
Output: 5.84

Task: Next: CCc1c2c(nc3ccc(O)cc13)-c1cc3c(c(=O)n1C2)COC(=O)[C@]3(O)CC + CC(CO)NC(=O)c1cc(-c2ccc(Cl)cc2)nn(-c2cnn(C)c2)c1=O
Output: 8.25

Task: Follow-up entry: CC(C)CC(NC(=O)C(Cc1ccccc1)NC(=O)c1cnccn1)B(O)O (configuration not stated) + CC(CO)NC(=O)c1cc(-c2ccc(Cl)cc2)nn(-c2cnn(C)c2)c1=O
Output: 7.66

Task: Next compound up: COc1cc(Nc2ncc3c(n2)-c2ccc(Cl)cc2C(c2c(F)cccc2OC)=NC3)ccc1C(=O)O + Cc1ccccc1N=Nc1ccc(NC(=O)c2ccnn2C)c(C)c1
Output: 5.21

Continuing:
Task: # lookup: pIC50 of CC(C)CC(NC(=O)C(Cc1ccccc1)NC(=O)c1cnccn1)B(O)O (configuration not stated) + Cc1ccccc1N=Nc1ccc(NC(=O)c2ccnn2C)c(C)c1
Output: 7.32

Task: Could you do the same for CC1COCCN1c1cc(C2(S(C)(=N)=O)CC2)nc(-c2ccnc3[nH]ccc23)n1 (configuration not stated) + Cc1cncc(-c2nc(NCCc3c[nH]c4ccccc34)c3ncn(C(C)C)c3n2)c1 , please?
Output: 5.23

====

- Tested on: OVCAR-5 complex spheroids with HUVEC/MSC, viability, % test/control
- measurementProtocol: Anticancer human tumor OVCAR-5 cell line growth inhibition [AhR];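 note: spheroids exposed to compounds for 7 days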;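 for viability, T/C: 100% = DMSO vehicle control wells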
- experimentalConditions: second compound 1 µM; first compound 0.01 µM; stronger effect = lower value
We begin with a simple list: items and their reported viability, T/C.
Unit % implied. Number only.

Task: Which viability, T/C is listed for Nc1ncn(C2CC(O)C(CO)O2)c(=O)n1 (centres undefined) + Cc1ccccc1N=Nc1ccc(NC(=O)c2ccnn2C)c(C)c1 ?
Output: 105

Continuing:
Task: Dear colleague, I am looking for the recorded viability, T/C of the following compound: CC1COCCN1c1cc(-c2ccnn2C)c2ccnc(-c3ccn[nH]3)c2n1 (centres undefined) + CC(CO)NC(=O)c1cc(-c2ccc(Cl)cc2)nn(-c2cnn(C)c2)c1=O
Output: 121

Task: Can you check CC[C@@]1(O)C(=O)OCc2c1cc1n(c2=O)Cc2cc3c(CN(C)C)c(O)ccc3nc2-1 + CC(CO)NC(=O)c1cc(-c2ccc(Cl)cc2)nn(-c2cnn(C)c2)c1=O next?
Output: 107

Task: Subsequent entry: CC[C@@]1(O)C(=O)OCc2c1cc1n(c2=O)Cc2cc3c(CN(C)C)c(O)ccc3nc2-1 + Cc1ccccc1N=Nc1ccc(NC(=O)c2ccnn2C)c(C)c1
Output: 89.3

====

- Test system: OVCAR-5 complex spheroids with HUVEC/MSC, viability, % test/control
- measurementProtocol: Anticancer human tumor OVCAR-5 cell line growth inhibition [AhR];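 note: spheroids exposed to compounds for 7 days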;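 for viability, T/C: 100% = DMSO vehicle control wells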
- experimentalConditions: second compound 0.1 µM; first compound 1 µM; stronger effect = lower value
Entries annotated with measured viability, T/C

Here is how some compounds turned out for viability, T/C.
Task: Query viability, T/C on OVCAR-5 complex spheroids with HUVEC/MSC, viability, % test/control for CC(C)c1c(-c2ccccc2)nc2c(C#N)c[nH]n2c1=O + Cc1cncc(-c2nc(NCCc3c[nH]c4ccccc34)c3ncn(C(C)C)c3n2)c1
Output: 100%

Task: Request: Nc1ccn(C2OC(CO)C(O)C2(F)F)c(=O)n1 (centres undefined) + Cc1ccccc1N=Nc1ccc(NC(=O)c2ccnn2C)c(C)c1
Output: 27.4%

Task: Can you check NS(=O)(=O)OCC1CC(n2ccc3c(NC4CCc5ccccc54)ncnc32)CC1O (centres undefined) + Cc1cncc(-c2nc(NCCc3c[nH]c4ccccc34)c3ncn(C(C)C)c3n2)c1 next?
Output: 17.6%

***
Task: Enter reported viability, T/C observed with OVCAR-5 complex spheroids with HUVEC/MSC, viability, % test/control for Nc1ccn(C2OC(CO)C(O)C2(F)F)c(=O)n1 (centres undefined) + CC(CO)NC(=O)c1cc(-c2ccc(Cl)cc2)nn(-c2cnn(C)c2)c1=O
Output: 29.9%

Task: Quick one: O=C(C=Cc1cccc(S(=O)(=O)Nc2ccccc2)c1)NO + CC(CO)NC(=O)c1cc(-c2ccc(Cl)cc2)nn(-c2cnn(C)c2)c1=O
Output: 52.2%

Task: For COc1cc(Nc2ncc3c(n2)-c2ccc(Cl)cc2C(c2c(F)cccc2OC)=NC3)ccc1C(=O)O + CC(CO)NC(=O)c1cc(-c2ccc(Cl)cc2)nn(-c2cnn(C)c2)c1=O then?
Output: 55.9%

Task: What about this compound? COc1cccc2c1C(=O)c1c(O)c3c(c(O)c1C2=O)CC(O)(C(=O)CO)CC3OC1CC(N)C(O)C(C)O1 (centres undefined) + CC(CO)NC(=O)c1cc(-c2ccc(Cl)cc2)nn(-c2cnn(C)c2)c1=O
Output: 23.5%

Task: Request: CC1COCCN1c1cc(-c2ccnn2C)c2ccnc(-c3ccn[nH]3)c2n1 (centres undefined) + CC(CO)NC(=O)c1cc(-c2ccc(Cl)cc2)nn(-c2cnn(C)c2)c1=O
Output: 30.8%

Task: // next record COc1cccc2c1C(=O)c1c(O)c3c(c(O)c1C2=O)CC(O)(C(=O)CO)CC3OC1CC(N)C(O)C(C)O1 (centres undefined) + Cc1ccccc1N=Nc1ccc(NC(=O)c2ccnn2C)c(C)c1
Output: 23.8%

Task: Next compound: CC1COCCN1c1cc(C2(S(C)(=N)=O)CC2)nc(-c2ccnc3[nH]ccc23)n1 (centres undefined) + Cc1ccccc1N=Nc1ccc(NC(=O)c2ccnn2C)c(C)c1
Output: 99.7%

Task: Continue with Nc1ccccc1NC(=O)c1ccc(CNC(=O)OCc2cccnc2)cc1 + Cc1cncc(-c2nc(NCCc3c[nH]c4ccccc34)c3ncn(C(C)C)c3n2)c1
Output: 47.4%
